Experiment: LDH release cytotoxicity on peritoneal macrophages
Format: cell-based, mice
Settings: male, C57bl/6j, mouse; 24 h incubation; read-out: LDH CC50 ± SE
# CC50 at 24 h per entry

| Query Smiles | CC50 at 24 h [µM] |
| --- | --- |
| [Se]=C(Nc1ccccc1)NC12CC3CC(CC(C3)C1)C2 | 29.4 |
| [Se]=C(NCc1ccccc1)NCC12CC3CC(CC(C3)C1)C2 | 20.4 |

----------
Target: human recombinant sEH (Homo sapiens)
Sequence (P34913 whole entry): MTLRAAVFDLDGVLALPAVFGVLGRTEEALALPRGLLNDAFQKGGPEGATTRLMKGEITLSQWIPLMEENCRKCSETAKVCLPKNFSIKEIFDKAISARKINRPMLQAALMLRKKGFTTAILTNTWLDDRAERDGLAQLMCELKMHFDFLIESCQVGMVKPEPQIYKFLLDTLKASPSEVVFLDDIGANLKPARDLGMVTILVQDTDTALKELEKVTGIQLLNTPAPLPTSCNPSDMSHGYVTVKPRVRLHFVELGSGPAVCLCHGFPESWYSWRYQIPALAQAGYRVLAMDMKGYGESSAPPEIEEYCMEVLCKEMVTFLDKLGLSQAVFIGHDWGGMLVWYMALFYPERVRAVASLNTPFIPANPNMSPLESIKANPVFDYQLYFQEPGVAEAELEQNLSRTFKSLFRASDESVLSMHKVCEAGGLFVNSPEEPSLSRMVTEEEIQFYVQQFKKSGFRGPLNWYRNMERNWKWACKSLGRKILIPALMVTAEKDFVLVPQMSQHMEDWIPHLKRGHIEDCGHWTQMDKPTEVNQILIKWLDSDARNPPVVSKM
Assay: Human sEH inhibition, kinetic fluorescent assay
Assay type: biochemical
Settings: human sEH; read-out: IC50 (sEH)
pIC50: −log10 of the molar value.

| Compound | pIC50 |
| --- | --- |
| CC(NC(=[Se])Nc1ccccc1)C12CC3CC(CC(C3)C1)C2 (stereo not shown) [4c] | 5.92 |
